- System: MGC-803 late stage differentiation gastric cancer cell
- test: MTT anti-proliferative assay, MGC-803
- Type: cell-based, human
- assay-conditions: MTT, 48 h
pIC50: −log10 of the molar value.
test-readout: pIC50

Completed entries (count: 5):
molecule: Cc1cccc(/C=C(\C#N)c2ccc(C(F)(F)F)cc2)c1 [Compound 1f2o]
pIC50: < 4.00

molecule: N#C/C(=C\c1cccc2ccccc12)c1ccc(OC(F)(F)F)cc1 [Compound 1a3c]
pIC50: < 4.00

molecule: N#C/C(=C\c1ccccc1C(F)(F)F)c1ccc(C(F)(F)F)cc1 [Compound 1f2m]
pIC50: < 4.00

molecule: N#C/C(=C\c1cccs1)c1ccc(OC(F)(F)F)cc1 [Compound 1a3b]
pIC50: 4.38

molecule: CCc1ccc(/C=C(\C#N)c2cccc(OC(F)(F)F)c2)cc1 [Compound 1b2f]
pIC50: 4.31

Now examine the next entry.
Prompt: Please give the measured pIC50 for this molecule: CC(C)c1ccc(/C=C(\C#N)c2ccc(OC(F)(F)F)cc2)cc1 [Compound 1a2g]
Completion: < 4.00

====

- System: MGC-803 late stage differentiation gastric cancer cell
- test: MTT anti-proliferative assay, MGC-803
- Type: cell-based, human
- assay-conditions: MTT, 48 h
test-readout: IC50

structure-as-smiles: CC(C)c1ccc(/C=C(\C#N)c2cccc(OC(F)(F)F)c2)cc1
IC50: > 100 µM
--
structure-as-smiles: N#C/C(=C\c1ccc(F)cc1)c1cccc(OC(F)(F)F)c1
IC50: 1.2 µM
--
structure-as-smiles: N#C/C(=C\c1ccc(N2CCCCC2)cc1)c1ccc(OC(F)(F)F)cc1
IC50: > 100 µM
--
structure-as-smiles: N#C/C(=C\c1ccc(F)cc1)c1ccc(C(F)(F)F)cc1
IC50: 51.9 µM
--
structure-as-smiles: N#C/C(=C\c1ccc(/C=C(\C#N)c2ccc(C(F)(F)F)cc2)cc1)c1ccc(C(F)(F)F)cc1
IC50: > 100 µM
--
structure-as-smiles: Cc1cc(C)c(/C=C(\C#N)c2ccc(C(F)(F)F)cc2)c(C)c1
IC50: > 100 µM
--
structure-as-smiles: COc1ccc(/C(C#N)=C/c2cc(OC)c(OC)c(OC)c2)cc1
IC50: 8.3 µM
--
structure-as-smiles: N#C/C(=C\c1c(F)cccc1Cl)c1ccc(C(F)(F)F)cc1
IC50: > 100 µM
--
structure-as-smiles: N#C/C(=C\c1cccc2ccccc12)c1ccc(C(F)(F)F)cc1
IC50: > 100 µM
--
structure-as-smiles: COc1ccc(/C=C(\C#N)c2ccc(OC(F)(F)F)cc2)cc1
IC50: > 100 µM

Prompt: Please give the measured IC50 for this molecule: "COc1cc(/C=C(\C#N)c2ccc(C(F)(F)F)cc2)cc(OC)c1OC"
Completion: > 100 µM

Prompt: One more molecule: "COc1cccc(/C=C(\C#N)c2ccc(C(F)(F)F)cc2)c1"
Completion: > 100 µM

====

- Tested on: HepG2 hepatoma cell
- test: MTT anti-proliferative assay, HepG2
- Format: cell-based, human
- assay-conditions: MTT, 48 h; read-out: IC50 HepG-2
test-readout: IC50

structure-as-smiles: COc1cc(/C=C(\C#N)c2ccc(OC(F)(F)F)cc2)cc(OC)c1OC
IC50: > 100 µM
--
structure-as-smiles: CCN(CC)c1ccc(/C=C(\C#N)c2ccc(C(F)(F)F)cc2)cc1
IC50: > 100 µM
--
structure-as-smiles: N#C/C(=C\c1ccccc1C(F)(F)F)c1ccc(C(F)(F)F)cc1
IC50: > 100 µM
--
structure-as-smiles: Cc1ccc(/C=C(\C#N)c2ccccc2OC(F)(F)F)cc1
IC50: 26.7 µM
--
structure-as-smiles: N#C/C(=C\c1cccs1)c1ccc(OC(F)(F)F)cc1
IC50: > 100 µM

Prompt: Please give the measured IC50 for this compound: "COc1cccc(/C=C(\C#N)c2ccc(OC(F)(F)F)cc2)c1"
Completion: > 100 µM

Prompt: One more compound: "CN(C)c1ccc(/C=C(\C#N)c2ccc(C(F)(F)F)cc2)cc1"
Completion: > 100 µM

Prompt: One more compound: "CCCCCCOc1ccc(/C=C(\C#N)c2ccc(OC(F)(F)F)cc2)cc1"
Completion: > 100 µM

Prompt: One more compound: "N#C/C(=C\c1ccc(Br)cc1)c1ccc(C(F)(F)F)cc1"
Completion: > 100 µM

Prompt: One more compound: "N#C/C(=C\c1ccc(N2CCOCC2)cc1)c1cccc(OC(F)(F)F)c1"
Completion: 23.5 µM

Prompt: One more compound: "N#C/C(=C\c1ccc(Br)cc1)c1cccc(OC(F)(F)F)c1"
Completion: 34.9 µM

Prompt: One more compound: "CCCCOc1ccc(/C=C(\C#N)c2ccc(OC(F)(F)F)cc2)cc1"
Completion: > 100 µM

Prompt: One more compound: "N#C/C(=C\c1ccco1)c1ccc(C(F)(F)F)cc1"
Completion: > 100 µM

Prompt: One more compound: "COc1ccc(/C=C(\C#N)c2ccccc2OC(F)(F)F)cc1"
Completion: 24.9 µM

Prompt: One more compound: "N#C/C(=C\c1ccc(N2CCCCC2)cc1)c1ccc(OC(F)(F)F)cc1"
Completion: > 100 µM

Prompt: One more compound: "N#C/C(=C\c1ccc(Cl)cc1)c1ccc(C(F)(F)F)cc1"
Completion: > 100 µM

Prompt: One more compound: "CCN(CC)c1ccc(/C=C(\C#N)c2ccc(C)cc2)cc1"
Completion: > 100 µM
